system: α1β2γ2L GABAA receptors stably expressed in HEK293 cells (Mus musculus, UniProt P22723+P62812+P63137)
Sequence (P63137 26-512): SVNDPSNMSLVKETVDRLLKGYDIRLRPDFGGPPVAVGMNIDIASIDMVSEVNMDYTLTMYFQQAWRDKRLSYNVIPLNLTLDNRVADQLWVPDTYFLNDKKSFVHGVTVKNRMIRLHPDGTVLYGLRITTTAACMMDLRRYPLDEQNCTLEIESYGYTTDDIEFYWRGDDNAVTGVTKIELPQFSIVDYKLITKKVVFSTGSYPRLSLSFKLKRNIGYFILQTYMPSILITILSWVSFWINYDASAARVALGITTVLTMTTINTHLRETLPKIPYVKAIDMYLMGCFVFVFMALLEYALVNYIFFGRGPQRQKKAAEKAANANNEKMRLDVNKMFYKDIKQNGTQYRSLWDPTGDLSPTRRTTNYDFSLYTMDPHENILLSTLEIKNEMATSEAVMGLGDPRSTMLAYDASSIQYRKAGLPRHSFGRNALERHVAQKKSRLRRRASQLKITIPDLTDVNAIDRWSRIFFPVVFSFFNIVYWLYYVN
Sequence (P22723 39-474): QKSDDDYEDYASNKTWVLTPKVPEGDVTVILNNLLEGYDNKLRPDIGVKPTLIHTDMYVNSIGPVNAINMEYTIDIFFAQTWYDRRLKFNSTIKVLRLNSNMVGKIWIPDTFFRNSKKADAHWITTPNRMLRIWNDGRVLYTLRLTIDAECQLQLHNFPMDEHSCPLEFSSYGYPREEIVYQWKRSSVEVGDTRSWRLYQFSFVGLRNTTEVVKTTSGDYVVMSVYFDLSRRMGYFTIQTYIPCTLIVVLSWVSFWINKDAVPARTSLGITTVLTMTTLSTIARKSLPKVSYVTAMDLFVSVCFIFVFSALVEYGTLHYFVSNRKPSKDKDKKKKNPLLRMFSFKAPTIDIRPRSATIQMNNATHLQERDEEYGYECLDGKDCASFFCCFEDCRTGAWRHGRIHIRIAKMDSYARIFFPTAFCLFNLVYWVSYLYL
Sequence (P62812 28-455): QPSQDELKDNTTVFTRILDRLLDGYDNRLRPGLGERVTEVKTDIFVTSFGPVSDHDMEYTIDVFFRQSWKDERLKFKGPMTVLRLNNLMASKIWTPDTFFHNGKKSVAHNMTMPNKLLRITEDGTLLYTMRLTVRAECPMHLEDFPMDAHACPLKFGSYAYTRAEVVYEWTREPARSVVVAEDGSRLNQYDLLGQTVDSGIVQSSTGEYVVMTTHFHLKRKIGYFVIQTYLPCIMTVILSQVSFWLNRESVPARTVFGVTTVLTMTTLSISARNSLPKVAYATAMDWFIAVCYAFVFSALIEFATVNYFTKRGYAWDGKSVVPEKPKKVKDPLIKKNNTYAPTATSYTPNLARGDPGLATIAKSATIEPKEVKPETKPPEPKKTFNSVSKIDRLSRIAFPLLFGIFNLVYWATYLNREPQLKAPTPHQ
Type: cell-based
measurement.context: Hill coefficient of modulator concentration-response
Where a name gives a salt, the structure may show the parent alone.
Would you mind labelling by nH? At or over 1 is 1.0, under is 0.0.

[
  {
    "molecule": "O=C(O[C@@H]1Cc2c(O)cc(O)cc2O[C@@H]1c1cc(O)c(O)c(O)c1)c1cc(O)c(O)c(O)c1 [EGCG, (-)-Epigallocatechin Gallate]",
    "label.value": 1.0
  },
  {
    "molecule": "Cc1ncc([N+](=O)[O-])n1CCO",
    "label.value": 0.0
  },
  {
    "molecule": "CCN(CCO)CCCC(C)Nc1ccnc2cc(Cl)ccc12 (centres unmarked) [Hydroxychloroquine, Hydroxychloroquine sulfate]",
    "label.value": 1.0
  },
  {
    "molecule": "C1CCc2nnnn2CC1",
    "label.value": 1.0
  }
]
